tested on: Escherichia coli; test: Cytotoxicity against streptomycin-resistant F plasmid deficient Escherichia coli JS4; format: functional, organism-based
pEC50: −log10 of the molar value.
Label rule, in plain words: pEC50 of 3 and up is y, under 3 is n.

>>> class("O=P(O)(O)C(Cl)(Cl)P(=O)(O)O")
"n"
>>> class("CC(O)(P(=O)(O)O)P(=O)(O)O")
"y"
>>> class("O=P(O)(O)NP(=O)(O)O [IMIDODIPHOSPHATE]")
"y"
>>> class("O=P(O)(O)CNCP(=O)(O)O")
"n"
>>> class("NCCC(O)(P(=O)(O)O)P(=O)(O)O")
"n"
